- TARGET SYSTEM: WIZ (Homo sapiens, UniProt O95785+Q96SW2)
- Construct: expressed in transfected cells
- Sequence (O95785 whole entry): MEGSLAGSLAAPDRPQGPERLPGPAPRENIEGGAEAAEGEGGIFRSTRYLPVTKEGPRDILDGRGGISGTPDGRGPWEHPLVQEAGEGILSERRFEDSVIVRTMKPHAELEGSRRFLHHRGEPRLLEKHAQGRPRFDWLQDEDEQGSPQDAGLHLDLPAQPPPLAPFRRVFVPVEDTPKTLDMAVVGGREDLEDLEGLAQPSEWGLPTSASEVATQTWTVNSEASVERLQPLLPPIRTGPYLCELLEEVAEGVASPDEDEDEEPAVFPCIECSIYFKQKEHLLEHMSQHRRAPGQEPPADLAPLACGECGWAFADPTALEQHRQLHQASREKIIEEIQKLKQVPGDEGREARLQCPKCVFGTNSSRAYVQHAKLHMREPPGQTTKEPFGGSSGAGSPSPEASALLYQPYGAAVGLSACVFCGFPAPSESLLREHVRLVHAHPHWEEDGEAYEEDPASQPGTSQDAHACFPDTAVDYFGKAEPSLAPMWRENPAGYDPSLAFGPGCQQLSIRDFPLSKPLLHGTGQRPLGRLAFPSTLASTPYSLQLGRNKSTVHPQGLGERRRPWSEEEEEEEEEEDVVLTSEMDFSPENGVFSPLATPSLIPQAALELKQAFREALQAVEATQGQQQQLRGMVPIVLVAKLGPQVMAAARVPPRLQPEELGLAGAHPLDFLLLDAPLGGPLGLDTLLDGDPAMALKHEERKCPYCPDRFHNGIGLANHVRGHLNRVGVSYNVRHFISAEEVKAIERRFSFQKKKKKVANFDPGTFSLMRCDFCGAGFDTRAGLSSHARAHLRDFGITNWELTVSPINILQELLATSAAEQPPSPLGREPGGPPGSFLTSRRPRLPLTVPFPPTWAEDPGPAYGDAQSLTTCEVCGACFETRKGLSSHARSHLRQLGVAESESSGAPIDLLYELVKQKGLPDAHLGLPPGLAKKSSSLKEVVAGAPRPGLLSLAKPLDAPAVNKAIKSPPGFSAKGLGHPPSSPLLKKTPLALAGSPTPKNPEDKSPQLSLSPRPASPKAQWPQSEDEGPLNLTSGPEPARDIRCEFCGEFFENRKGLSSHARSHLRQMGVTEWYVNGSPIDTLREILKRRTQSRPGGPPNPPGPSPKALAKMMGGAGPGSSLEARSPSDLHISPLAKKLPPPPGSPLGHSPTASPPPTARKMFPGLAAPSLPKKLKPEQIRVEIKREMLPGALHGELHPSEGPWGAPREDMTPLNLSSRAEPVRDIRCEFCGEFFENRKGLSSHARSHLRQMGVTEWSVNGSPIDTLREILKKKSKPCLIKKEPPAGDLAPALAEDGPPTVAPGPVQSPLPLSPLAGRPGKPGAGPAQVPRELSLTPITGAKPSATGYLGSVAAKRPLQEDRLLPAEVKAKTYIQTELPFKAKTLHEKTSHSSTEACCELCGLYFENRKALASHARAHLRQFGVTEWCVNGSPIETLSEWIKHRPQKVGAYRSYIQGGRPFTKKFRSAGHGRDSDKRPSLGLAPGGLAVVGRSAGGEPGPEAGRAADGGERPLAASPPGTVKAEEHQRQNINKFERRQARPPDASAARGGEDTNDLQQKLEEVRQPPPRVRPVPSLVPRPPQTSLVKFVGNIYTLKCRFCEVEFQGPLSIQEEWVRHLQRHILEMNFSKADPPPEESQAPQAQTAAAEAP
- Sequence (Q96SW2 whole entry): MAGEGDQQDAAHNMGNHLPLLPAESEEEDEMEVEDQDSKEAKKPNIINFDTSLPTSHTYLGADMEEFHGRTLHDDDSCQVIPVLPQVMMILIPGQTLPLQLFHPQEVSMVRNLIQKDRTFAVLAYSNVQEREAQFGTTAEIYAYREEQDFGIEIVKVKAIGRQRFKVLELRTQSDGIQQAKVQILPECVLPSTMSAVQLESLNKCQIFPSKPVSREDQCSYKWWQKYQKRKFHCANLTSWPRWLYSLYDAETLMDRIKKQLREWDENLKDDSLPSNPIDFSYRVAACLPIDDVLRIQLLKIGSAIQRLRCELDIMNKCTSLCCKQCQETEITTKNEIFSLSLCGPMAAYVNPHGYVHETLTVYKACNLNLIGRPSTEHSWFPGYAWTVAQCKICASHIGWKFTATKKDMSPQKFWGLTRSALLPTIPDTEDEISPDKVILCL
- Sequence (Q16531 whole entry partner): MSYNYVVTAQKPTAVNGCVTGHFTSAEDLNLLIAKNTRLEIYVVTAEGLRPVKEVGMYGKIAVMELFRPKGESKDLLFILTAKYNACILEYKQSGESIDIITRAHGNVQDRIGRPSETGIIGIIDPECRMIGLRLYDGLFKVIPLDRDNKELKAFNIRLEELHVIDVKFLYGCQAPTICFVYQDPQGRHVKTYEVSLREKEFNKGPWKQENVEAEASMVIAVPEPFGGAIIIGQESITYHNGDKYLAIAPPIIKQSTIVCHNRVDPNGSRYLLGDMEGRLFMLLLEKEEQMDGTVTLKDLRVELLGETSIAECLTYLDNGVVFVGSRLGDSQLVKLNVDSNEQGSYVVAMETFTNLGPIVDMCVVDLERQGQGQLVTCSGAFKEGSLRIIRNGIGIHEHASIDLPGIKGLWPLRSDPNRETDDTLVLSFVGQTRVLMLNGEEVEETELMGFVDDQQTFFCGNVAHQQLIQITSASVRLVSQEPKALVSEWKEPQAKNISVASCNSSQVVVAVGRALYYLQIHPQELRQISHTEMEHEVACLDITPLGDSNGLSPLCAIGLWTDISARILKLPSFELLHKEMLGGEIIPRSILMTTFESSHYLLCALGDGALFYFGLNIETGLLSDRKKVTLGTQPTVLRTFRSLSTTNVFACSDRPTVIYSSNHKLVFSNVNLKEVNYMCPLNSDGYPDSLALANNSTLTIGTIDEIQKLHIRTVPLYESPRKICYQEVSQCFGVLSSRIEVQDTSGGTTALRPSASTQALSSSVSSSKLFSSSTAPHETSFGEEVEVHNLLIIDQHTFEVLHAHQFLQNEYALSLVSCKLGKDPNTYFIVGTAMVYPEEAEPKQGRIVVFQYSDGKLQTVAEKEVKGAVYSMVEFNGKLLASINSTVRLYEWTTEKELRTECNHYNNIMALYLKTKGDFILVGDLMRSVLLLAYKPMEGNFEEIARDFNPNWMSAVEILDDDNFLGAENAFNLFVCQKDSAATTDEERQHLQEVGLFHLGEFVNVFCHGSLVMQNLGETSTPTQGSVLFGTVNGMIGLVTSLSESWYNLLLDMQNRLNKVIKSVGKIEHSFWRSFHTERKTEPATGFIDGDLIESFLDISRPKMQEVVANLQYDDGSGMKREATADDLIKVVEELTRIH
- METHOD NOTES: Quantification of WIZ protein levels in HiBit tag fusion protein assay (WIZ HiBit assay in 293T cells)
- Format: cell-based
- DETAILS: WIZ HiBit assay in 293T cells; 10-point, 5-fold dilution, highest concentration 25 μM, about 18 hours; read-out: WIZ AC50
TEST READOUT: DC50 (nM)

// known answers, use as guide
1. CC(=O)N1CCN(Cc2ccc3onc(N4CCC(=O)NC4=O)c3c2)[C@H](C)C1 = 229
2. CN1[C@@H]2CC[C@H]1CC(Cc1ccc3onc(N4CCC(=O)NC4=O)c3c1)C2 (some centres unmarked) [Example 59] = 25
3. O=C1CCN(c2noc3ccc(CN4CCN5[C@@H](CCS5(=O)=O)C4)cc23)C(=O)N1 = 45

a = O=C1CCN(c2noc3ccc(CC4CCN(CCC5CCCCC5)CC4)cc23)C(=O)N1
b = O=C1CCN(c2noc3ccc(CC4CCN(CC5CCCCC5)C4)cc23)C(=O)N1 (centres unmarked)
**Query** Hey, which is lower on measured DC50, a or b ? Identify your pick by its label.
**Result** a
(a: 11 nM, b: 279 nM)

P = CS(=O)(=O)N1CC2CCC1CN2Cc1ccc2onc(N3CCC(=O)NC3=O)c2c1 (single isomer, unassigned) [Example 126]
Q = CC(C)CN1CCN(Cc2ccc3onc(N4CCC(=O)NC4=O)c3c2)[C@H](C(C)C)C1
**Query** Hey, which is lower on measured DC50, P or Q ? Identify your pick by its label.
**Result** Q

###

- TARGET SYSTEM: WIZ (Homo sapiens, UniProt O95785+Q96SW2)
- Construct: expressed in transfected cells
- METHOD NOTES: Quantification of WIZ protein levels in HiBit tag fusion protein assay (WIZ HiBit assay in 293T cells)
- Type: cell-based
- DETAILS: WIZ HiBit assay in 293T cells; 10-point, 5-fold dilution, highest concentration 25 μM, about 18 hours; read-out: WIZ AC50
TEST READOUT: DC50 (nM)

// known answers, use as guide
1) C[C@H]1CN(Cc2ccc3onc(N4CCC(=O)NC4=O)c3c2)CCN1CC1CCCCC1 [Example 28] = 5.4
2) CC(C)N1CCN(Cc2ccc3onc(N4CCC(=O)NC4=O)c3c2)CC1 [Example 79] = 16

P = O=C1CCN(c2noc3ccc(CC4CCN(Cc5cccc(F)c5)CC4)cc23)C(=O)N1 [Example 7]
Q = CN1CCN(Cc2ccc3onc(N4CCC(=O)NC4=O)c3c2)C[C@@H]1C(F)F [Example 118]
R = CC(C)CN1CCN(Cc2ccc3onc(N4CCC(=O)NC4=O)c3c2)C[C@@H]1C [Example 30]
**Query** Which order do these items take when sorted by rising DC50? List them. Returns: the labels arranged in the requested order.
**Result** R, P, Q

###

- TARGET SYSTEM: WIZ (Homo sapiens, UniProt O95785+Q96SW2)
- Construct: expressed in transfected cells
- METHOD NOTES: Quantification of WIZ protein levels in HiBit tag fusion protein assay (WIZ HiBit assay in 293T cells)
- Assay type: cell-based
- DETAILS: HEK-293T, DMSO-normalized, curve-fitted percentage of WIZ-HiBit remaining at 25 uM; read-out: WIZ Amax
TEST READOUT: remaining activity at 25 µM (%)

1) CN1CCN(Cc2ccc3onc(N4CCC(=O)NC4=O)c3c2)CC1 = 9

a = CN1CCN(Cc2ccc3onc(N4CCC(=O)NC4=O)c3c2)C[C@@H]1C(F)F
b = CCN1CCN(Cc2ccc3onc(N4CCC(=O)NC4=O)c3c2)CC1
**Query** # returns the entry with the larger remaining activity at 25 µM; inputs a and b Identify your pick by its label.
**Result** a

A = CC(C)(C)OC(=O)N1C[C@H]2C[C@@H]1CN2Cc1ccc2onc(N3CCC(=O)NC3=O)c2c1
B = CC(C)(C)OC(=O)N1CCN(Cc2ccc3onc(N4CCC(=O)NC4=O)c3c2)CC1(C)C
C = O=C1CCN(c2noc3ccc(CN4CCN(C5CCC5)CC4)cc23)C(=O)N1
**Query** Which order do these items take when sorted by rising remaining activity at 25 µM? List them. Returns: the labels arranged in the requested order.
**Result** C, B, A
(C: 7%, B: 19%, A: 34%)

###

- TARGET SYSTEM: WIZ (Homo sapiens, UniProt O95785+Q96SW2)
- Construct: expressed in transfected cells
- METHOD NOTES: Quantification of WIZ protein levels in HiBit tag fusion protein assay (WIZ HiBit assay in 293T cells)
- Format: cell-based
- DETAILS: HEK-293T, DMSO-normalized, curve-fitted percentage of WIZ-HiBit remaining at 25 uM; read-out: WIZ Amax
TEST READOUT: remaining activity at 25 µM (%)

a = Cc1ccccc1CN1CCC(Cc2ccc3onc(N4CCC(=O)NC4=O)c3c2)CC1 [Example 12]
b = CS(=O)(=O)N1CCN(Cc2ccc3onc(N4CCC(=O)NC4=O)c3c2)CC1 [Example 83]
**Query** Hey, which is lower on measured remaining activity at 25 µM, a or b ? Identify your pick by its label.
**Result** a
(a: 10%, b: 17%)

1 = COC[C@H]1CN(Cc2ccc3onc(N4CCC(=O)NC4=O)c3c2)CCN1C [Example 117]
2 = CN1CCC(Cc2ccc3onc(N4CCC(=O)NC4=O)c3c2)C1 (stereo not shown) [Example 50]
**Query** Hey, which is lower on measured remaining activity at 25 µM, 1 or 2 ? Identify your pick by its label.
**Result** 1

###

- TARGET SYSTEM: WIZ (Homo sapiens, UniProt O95785+Q96SW2)
- Construct: expressed in transfected cells
- METHOD NOTES: Quantification of WIZ protein levels in HiBit tag fusion protein assay (WIZ HiBit assay in 293T cells)
- Format: cell-based
- DETAILS: WIZ HiBit assay in 293T cells; 10-point, 5-fold dilution, highest concentration 25 μM, about 18 hours; read-out: WIZ AC50
TEST READOUT: DC50 (nM)

P = CS(=O)(=O)N1CCN(Cc2ccc3onc(N4CCC(=O)NC4=O)c3c2)CC1
Q = C[C@H]1CN(CC2CCOCC2)[C@@H](C)CN1Cc1ccc2onc(N3CCC(=O)NC3=O)c2c1
R = O=C1CCN(c2noc3ccc(CN4CCN(CC5CCOCC5)CC4)cc23)C(=O)N1
S = CC(C)CN1CCN(Cc2ccc3onc(N4CCC(=O)NC4=O)c3c2)CC1
T = CN1CC2CCC1CN2Cc1ccc2onc(N3CCC(=O)NC3=O)c2c1 (single isomer, unassigned) [Example 124]
**Query** Order these by DC50, descending, and give the full ranking. Returns: the labels arranged in the requested order.
**Result** T, P, Q, S, R
(T: 520 nM, P: 93 nM, Q: 56 nM, S: 37 nM, R: 4 nM)

a = O=C1CCN(c2noc3ccc(CN4CCN5CCOC[C@H]5C4)cc23)C(=O)N1
b = CC(C)CN1CCN(Cc2ccc3onc(N4CCC(=O)NC4=O)c3c2)[C@H](C)C1
c = O=C1CCN(c2noc3ccc(CN4C[C@@H]5C[C@H]4CN5CC4CCOCC4)cc23)C(=O)N1
**Query** Which order do these items take when sorted by rising DC50? List them. Returns: the labels arranged in the requested order.
**Result** b, a, c
(b: 32 nM, a: 65 nM, c: 188 nM)

I = CC(C)CN1CCN(Cc2ccc3onc(N4CCC(=O)NC4=O)c3c2)[C@@H](C)C1
II = CC(C)(C)OC(=O)N1C[C@@H]2C[C@H]1CN2Cc1ccc2onc(N3CCC(=O)NC3=O)c2c1
III = C[C@H]1CN(Cc2ccc3onc(N4CCC(=O)NC4=O)c3c2)CCN1CC1COC1
**Query** Which order do these items take when sorted by rising DC50? List them. Returns: the labels arranged in the requested order.
**Result** III, I, II

1 = O=C1CCN(c2noc3ccc(CC4CCNC4)cc23)C(=O)N1 (stereo not drawn)
2 = O=C1CCN(c2noc3ccc(CN4CCN(C5CC5)CC4)cc23)C(=O)N1
3 = CC[C@@H]1CN(C)CCN1Cc1ccc2onc(N3CCC(=O)NC3=O)c2c1
4 = O=C1CCN(c2noc3ccc(CN4C[C@H]5C[C@@H]4CN5CC4CCOCC4)cc23)C(=O)N1
**Query** Which order do these items take when sorted by rising DC50? List them. Returns: the labels arranged in the requested order.
**Result** 3, 4, 2, 1

###

- TARGET SYSTEM: WIZ (Homo sapiens, UniProt O95785+Q96SW2)
- Construct: expressed in transfected cells
- METHOD NOTES: Quantification of WIZ protein levels in HiBit tag fusion protein assay (WIZ HiBit assay in 293T cells)
- Assay type: cell-based
- DETAILS: HEK-293T, DMSO-normalized, curve-fitted percentage of WIZ-HiBit remaining at 25 uM; read-out: WIZ Amax
TEST READOUT: remaining activity at 25 µM (%)

// known answers, use as guide
1. C[C@H]1CN(Cc2ccc3onc(N4CCC(=O)NC4=O)c3c2)CCN1C1COC1 = 5
2. Cc1c(CN2CCN(CC3CC3)[C@@H](C)C2)ccc2onc(N3CCC(=O)NC3=O)c12 = 14
3. O=C1CCN(c2noc3ccc(CC4CCN(CCC5CCCCC5)CC4)cc23)C(=O)N1 = 10

A = CC(C)CN1CCN(Cc2ccc3onc(N4CCC(=O)NC4=O)c3c2)C[C@H]1C
B = O=C1CCN(c2noc3ccc(CC4CCCNC4)cc23)C(=O)N1 (stereo not drawn)
**Query** Hey, which is lower on measured remaining activity at 25 µM, A or B ? Identify your pick by its label.
**Result** A
(A: 11%, B: 22%)

1 = O=C1CCN(c2noc3ccc(CN4CCN5[C@@H](CCS5(=O)=O)C4)cc23)C(=O)N1
2 = C[C@@H]1CN(C(=O)NC2CCCC2)CCN1Cc1ccc2onc(N3CCC(=O)NC3=O)c2c1
**Query** Hey, which is lower on measured remaining activity at 25 µM, 1 or 2 ? Identify your pick by its label.
**Result** 1
(1: 13%, 2: 22%)
